System: K4 kissing-loop RNA reporter
experimentalProtocol: apparent KD of K4 kissing-loop reporter; higher = weaker reporter binding
conditionsUsed: Eterna round: R107; input ligand: theophylline 20 uM
measurementType: apparent KD of K4 kissing-loop reporter

These recorded examples may help you get a feel for the data.
{"columns": ["querySequence", "measuredValue"],
 "data": [
  ["CCGGCCCGGCCGGAUACCAGUGCGCCGCUGUGAACUGCGGGCCCAGAGUGAUGUUCGGGACACCCUUGGCAGCCGCCUGGGUCGC [#2 Same State - Theophylline B Attempt #26 (HarryS)]", "0.325 µM"],
  ["UGUCAUUGGUCGGCCGCCACUUCAUAAAGAGUGAUGUUCUAAAAGACGGAUCGAAAGAUCUGUCGAAGGACCGGGAUCGAUGACU [FiskerMod 11 - Jieux - Same State - Tryptophan B]", "0.569 µM"],
  ["CCGCUGUACUGCAAUAAGUGAUGUUUAUUGCAGGAUAUCUGGAAACAGAGAAGGGCAUGUACUCGACUUAGCCACUACAGCGGUU", "0.0569 µM"],
  ["AGACUACCACACUGUCAAUAGACAGUGUACUAGGAUAUGCUGAUAAGCAGAAGGAGUGAUGUUCCAAGGUAGUCAAUAAAAUAAU [FmnAX 13 U28+A66]", "0.291 µM"],
  ["AAAUCGUUCAGAAGGAGCGUGGAUUAUUCUUAAAUAUUUAUUACGAGUGAUGUUCGUAAUUCACAGGUAGGUCGCUGAUCGAUAA [JR_ExcArginiB_Sub003]", "0.121 µM"]
]}

Form entry - test system: K4 kissing-loop RNA reporter; read-out: apparent KD of K4 kissing-loop reporter; sequence: GGGCGUGGCGCGGCCGCCACUGGGCCUGGGCGCUCGCUGAGUGAUGUUCGUCGGCGGCUGGGUCGUAGGACCGGGUGCUGGUUGG [BDazzled - #7 SS Tryptophan B] 0.424 µM

---

Test system: MS2 coat protein
experimentalProtocol: apparent KD of MS2 coat protein; designed switch direction (-1 OFF switch, 1 ON switch): -1; higher = weaker reporter binding
conditionsUsed: input ligand: FMN 200 uM
measurementType: apparent KD of MS2 coat protein (nM)
Answer format: numeric, nM implied, no suffix.

{"columns": ["querySequence", "system", "readoutUnits", "measuredValue"],
 "data": [
  ["CCACGUCUGCAGGAUAUCAGAUUGUAAGAUCGAUGAGAAGGGCAGACAUGAGGAUCACCCAUGUCCGCCACCAA [EX6 C.10] (Eterna round: R97, puzzle: Exclusion 6)", "MS2 coat protein", "nM", 20.6],
  ["UUUAUGUCAGGAUAUGAUUAGAUCUACUUCGGUAGAUCUAAUCAGAAGGGACAUGAGGAUCACCCAUGUAGUUU [Ex4 - 3 - 13] (Eterna round: R96, puzzle: Exclusion 4)", "MS2 coat protein", "nM", 671]
]}

Form entry - test system: MS2 coat protein; read-out: apparent KD of MS2 coat protein; sequence: GGCACACAUGAGGAUCACCCAUGUGAGGAUAUUAGGCGAUCGUCGAAAGACGAUAGCCUGAGAAGGCACAUGCC [Eli x1 4.12] (Eterna round: R97, puzzle: Exclusion 1) 92.2

---

Test system: K4 kissing-loop RNA reporter;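 also: bound reporter read as fluorescence of individual clusters on recovered sequencing chips by microscopy, with normalized cluster intensities fitted with a binding model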
experimentalProtocol: apparent KD of K4 kissing-loop reporter; higher = weaker reporter binding
conditionsUsed: Eterna round: R107; input ligand: arginine 13.2 mM
measurementType: apparent KD of K4 kissing-loop reporter

These recorded examples may help you get a feel for the data.
{"columns": ["querySequence", "apparent KD of K4 kissing-loop reporter"],
 "data": [
  ["UGUAAGCGCGUAGAUACCAGCAGACGAGUGAUGUUCGAGAGAUUAAGGAAAAGAAAGUGAUGCCCUUGGCAGCUAAUCAUAAGCG [whbob_Ex_Theo_B_sa95]", "300 nM"],
  ["GCCGUAGAUUGAAGGAGCGUGGACCUAUCGCUUGAACAGUGAUGUUGUUUAUCUAGGAAGCCGCAGGUAGGUCGCAAUCUACGGC", "292 nM"]
]}

Value lookup for apparent KD of K4 kissing-loop reporter; key = UACCUAUUAUUAACACUAUAUACAACUGAAGGAGCGACAAUAAAGUCAGGUAGGUCGCAGAAUUAAUGAGUGAUGUUCAUUUUUA [JR_ExcArginiA_Sub014] 136 nM
